Each recorded value in this set is attributed to patent US20250277029A1.

target: human CB1 on stably transfected CB1 CHO cells (human, UniProt P21554 1-472); test: cell-based or functional assay
Sequence (P21554 whole entry): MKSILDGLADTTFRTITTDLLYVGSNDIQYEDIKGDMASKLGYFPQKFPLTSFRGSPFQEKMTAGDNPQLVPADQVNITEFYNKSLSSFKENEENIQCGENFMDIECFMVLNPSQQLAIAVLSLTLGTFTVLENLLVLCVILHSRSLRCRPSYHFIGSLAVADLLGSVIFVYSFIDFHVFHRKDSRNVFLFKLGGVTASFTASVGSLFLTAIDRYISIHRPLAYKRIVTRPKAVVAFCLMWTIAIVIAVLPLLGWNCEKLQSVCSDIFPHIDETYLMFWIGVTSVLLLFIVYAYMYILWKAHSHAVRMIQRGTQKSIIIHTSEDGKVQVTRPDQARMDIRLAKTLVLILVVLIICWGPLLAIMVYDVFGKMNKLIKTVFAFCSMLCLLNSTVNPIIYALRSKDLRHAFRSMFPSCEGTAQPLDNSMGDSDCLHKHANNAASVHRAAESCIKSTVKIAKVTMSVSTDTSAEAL
READOUT TYPE: IC50 (nM, n = 4), antagonist activity, TR-FRET cAMP assay (nM)
Note: unit nM is implicit; provide only the numeric part.

Query string: Would you kindly share the measured IC50 (nM, n = 4), antagonist activity, TR-FRET cAMP assay for LIBC674200-1 (IgG1 SEFL2 mAb) (antibody, V domains shown) VH: QVQLQESGPGLVKPSQTLSLTCTVSGGSIRRGGDYWSWIRQHPGKGLEWIGHVYYTGQTAYNPNFRNRVRISVNTYKNQFSLKLSSVTAADTAVYYCARGYDVSGYSYYYYGMDVWGQGTTVTVSS VL: DIVMTQSPLSLPVTPGEPASISCRSSQSLLHRSGYNYLDWYLQKPGQSPQLLIYLGSNRASGVPGRFSGSGSGTDFTLKISRVEAEDVGVYYCMQSLQTPRTFGQGTKVEIKR ?
Result string: 2.39
